# Measured on: secreted GV sPLA2 (Homo sapiens)
# Sequence (P39877 21-138): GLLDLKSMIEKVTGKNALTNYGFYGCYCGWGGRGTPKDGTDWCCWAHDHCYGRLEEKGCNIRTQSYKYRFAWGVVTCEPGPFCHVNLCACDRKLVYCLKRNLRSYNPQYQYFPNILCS
# Run description: radioactivity-based mixed micelle assay, GV sPLA2
# Type: biochemical
# Stated conditions: 0.091 mole fraction; read-out: GV sPLA2 % Inhib
Reported endpoint: inhibition at 0.091 mole fraction (%)

Study these solved cases before continuing.
COC(=O)c1csc(C(=O)C(C)Oc2ccc(Oc3ccccc3)cc2)n1 (centres unmarked) [GK428] = 36
CCCCCCCCc1ccc(OC(C)C(=O)c2nc(C(=O)OC)cs2)cc1 (centres unmarked) [GK402] = 50
CCCCCCCOc1ccc(OCC(=O)c2nc(C(=O)OC)cs2)cc1 [GK420] = 46

A: CCCCCCSc1ccc(OCC(=O)c2nc(C(=O)OC)cs2)cc1 [GK427]
B: CCCCCCOc1ccc(SCC(=O)c2nc(C(=O)OC)cs2)cc1 [GK419]
Given the listed items, does A or B have the lesser reported inhibition at 0.091 mole fraction? Output the label that corresponds to your choice.
B
